WBC by entry:
- Species on record: Rattus norvegicus
- assayNotes: Open TG-GATES - Regimen: Daily Repeat
- Assay type: toxicity, organism-based, Sprague-Dawley
- Parameters: regimen Daily Repeat, gender Male, age 6 weeks
- conditionInfo: in vivo, po, 0 mg/kg, […], tissue Blood, route gavage, dose level Control, time 7 day
Number in x10_2/uL, nothing else.

Example cases with answers are listed next.
compound: CC(=O)Nc1ccc2c(c1)Cc1ccccc1-2
WBC (x10_2/uL): 114.7
//
compound: CC[C@@H](CO)NCCN[C@@H](CC)CO
WBC (x10_2/uL): 113
//
compound: CCN(CC)N=O
WBC (x10_2/uL): 109.2
//
compound: CC(C)Cc1ccc(C(C)C(=O)O)cc1 (stereo not drawn)
WBC (x10_2/uL): 126
//
compound: CC(=O)N1CCN(c2ccc(OCC3COC(Cn4ccnc4)(c4ccc(Cl)cc4Cl)O3)cc2)CC1 (stereo not drawn)
WBC (x10_2/uL): 94.3

Query string: Specify reported WBC for the compound shown: O=C(O)COc1nn(Cc2ccccc2)c2ccccc12
Result string: 96.5

Query string: Specify reported WBC for the compound shown: CC(CCc1ccccc1)NCC(O)c1ccc(O)c(C(N)=O)c1 (stereo not drawn)
Result string: 108.5

Query string: Specify reported WBC for the compound shown: CC(N)=O [ACETAMIDE]
Result string: 130.3

---

A/G by entry:
- Species on record: Rattus norvegicus
- assayNotes: Open TG-GATES - Regimen: Daily Repeat
- Format: toxicity, organism-based, Sprague-Dawley
- Design: regimen Daily Repeat, gender Male, age 6 weeks
- conditionInfo: in vivo, po, 0 mg/kg, 72 h, tissue Plasma, route gavage, dose level Control, time 3 day
Answer with a number only.

Example cases with answers are listed next.
compound: CC(N)=O [ACETAMIDE]
A/G: 1
//
compound: CCN(CC)N=O
A/G: 1.6
//
compound: CC[C@@H](CO)NCCN[C@@H](CC)CO
A/G: 1.1
//
compound: CC(=O)Nc1ccc2c(c1)Cc1ccccc1-2
A/G: 1.6

Shift focus to the following entry.
Query string: Specify reported A/G for the compound shown: O=C(O)COc1nn(Cc2ccccc2)c2ccccc12
Result string: 2.1

---

- Species: Rattus norvegicus
- assayNotes: Open TG-GATES - Regimen: Single
- Assay type: toxicity, organism-based, Sprague-Dawley
- Set-up: regimen Single, gender Male, age 6 weeks
- conditionInfo: in vivo, po, 0 mg/kg, 9 h, tissue Plasma, route gavage, dose level Control
Cl by entry:
Number in meq/L, nothing else.

Example cases with answers are listed next.
compound: O=C(O)COc1nn(Cc2ccccc2)c2ccccc12 [BENDAZAC]
readoutType: Cl
recordedNumber: 106
--
compound: CC[C@@H](CO)NCCN[C@@H](CC)CO [ETHAMBUTOL]
readoutType: Cl
recordedNumber: 107.8
--
compound: CCN(CC)N=O [N-NITROSODIETHYLAMINE]
readoutType: Cl
recordedNumber: 103
--
compound: CC(=O)N1CCN(c2ccc(OCC3COC(Cn4ccnc4)(c4ccc(Cl)cc4Cl)O3)cc2)CC1 (stereo not given) [KETOCONAZOLE]
readoutType: Cl
recordedNumber: 106

Shift focus to the following entry.
Query string: Specify reported Cl for the compound shown: CC(=O)Nc1ccc2c(c1)Cc1ccccc1-2 [2-ACETYLAMINOFLUORENE]
Result string: 104

---

- Organism: Rattus norvegicus
- assayNotes: Open TG-GATES - Regimen: Daily Repeat
- Type: toxicity, organism-based, Sprague-Dawley
- Design: regimen Daily Repeat, gender Male, age 6 weeks
- conditionInfo: in vivo, po, 0 mg/kg, […], tissue Plasma, route gavage, dose level Control, time 7 day
Labelling: TG reported below 100 mg/dL becomes MET; at or above becomes NOT MET.

Consider the worked cases shown below.
compound: O=C(O)COc1nn(Cc2ccccc2)c2ccccc12
groupLabel: NOT MET
--
compound: CC(=O)Nc1ccc2c(c1)Cc1ccccc1-2
groupLabel: MET

Query string: hey, is TG for CC(CCc1ccccc1)NCC(O)c1ccc(O)c(C(N)=O)c1 (stereo not drawn) lower than 100 mg/dL or not?
Result string: MET

Query string: hey, is TG for CC(N)=O [ACETAMIDE] lower than 100 mg/dL or not?
Result string: NOT MET

Query string: hey, is TG for CC[C@@H](CO)NCCN[C@@H](CC)CO lower than 100 mg/dL or not?
Result string: MET

---

- Organism: Rattus norvegicus
- assayNotes: Open TG-GATES - Regimen: Daily Repeat
- Assay type: toxicity, organism-based, Sprague-Dawley
- Design: regimen Daily Repeat, gender Male, age 6 weeks
- conditionInfo: in vivo, po, 0 mg/kg, […], tissue Plasma, route gavage, dose level Control, time 7 day
Labelling: GLC reported below 200 mg/dL becomes true; at or above becomes false.

molecule: O=C(O)COc1nn(Cc2ccccc2)c2ccccc12
groupLabel: false
--
molecule: CC(CCc1ccccc1)NCC(O)c1ccc(O)c(C(N)=O)c1 (stereo not drawn)
groupLabel: true
--
molecule: CC(C)Cc1ccc(C(C)C(=O)O)cc1 (stereo not drawn)
groupLabel: true

Attention now turns to another entry.
Query string: hey, is GLC for CC(=O)N1CCN(c2ccc(OCC3COC(Cn4ccnc4)(c4ccc(Cl)cc4Cl)O3)cc2)CC1 (stereo not drawn) lower than 200 mg/dL or not?
Result string: true

---

PT by entry:
- Organism: Rattus norvegicus
- assayNotes: Open TG-GATES - Regimen: Daily Repeat
- Type: toxicity, organism-based, Sprague-Dawley
- Parameters: regimen Daily Repeat, gender Male, age 6 weeks
- conditionInfo: in vivo, po, 0 mg/kg, […], tissue Blood, route gavage, dose level Control, time 7 day
A complete answer gives the number and then names the unit.

compound: O=C(O)COc1nn(Cc2ccccc2)c2ccccc12
PT: 11.5 s
//
compound: CCN(CC)N=O
PT: 11.8 s

Query string: Specify reported PT for the compound shown: CC(=O)Nc1ccc2c(c1)Cc1ccccc1-2
Result string: 11.7 s

Query string: Specify reported PT for the compound shown: CC(CCc1ccccc1)NCC(O)c1ccc(O)c(C(N)=O)c1 (configuration not stated)
Result string: 12.5 s

Query string: Specify reported PT for the compound shown: CC(C)Cc1ccc(C(C)C(=O)O)cc1 (configuration not stated)
Result string: 16.1 s

Query string: Specify reported PT for the compound shown: CC(=O)N1CCN(c2ccc(OCC3COC(Cn4ccnc4)(c4ccc(Cl)cc4Cl)O3)cc2)CC1 (configuration not stated)
Result string: 16.1 s

Query string: Specify reported PT for the compound shown: CC[C@@H](CO)NCCN[C@@H](CC)CO
Result string: 15.4 s

---

- Species on record: Rattus norvegicus
- assayNotes: Open TG-GATES - Regimen: Daily Repeat
- Assay type: toxicity, organism-based, Sprague-Dawley
- Design: regimen Daily Repeat, gender Male, age 6 weeks
- conditionInfo: in vivo, po, 0 mg/kg, 72 h, tissue Blood, route gavage, dose level Control, time 3 day
Eos by entry:
A complete answer gives the number and then names the unit.

compound: CC(C)Cc1ccc(C(C)C(=O)O)cc1 (stereo not drawn) [IBUPROFEN]
readoutType: Eos
result: 1%
//
compound: CC(=O)Nc1ccc2c(c1)Cc1ccccc1-2 [2-ACETYLAMINOFLUORENE]
readoutType: Eos
result: 1.2%
//
compound: CC(N)=O [ACETAMIDE]
readoutType: Eos
result: 1%
//
compound: CC[C@@H](CO)NCCN[C@@H](CC)CO [ETHAMBUTOL]
readoutType: Eos
result: 1%
//
compound: CCN(CC)N=O [N-NITROSODIETHYLAMINE]
readoutType: Eos
result: 1.2%

Query string: Specify reported Eos for the compound shown: O=C(O)COc1nn(Cc2ccccc2)c2ccccc12 [BENDAZAC]
Result string: 1.2%

Query string: Specify reported Eos for the compound shown: CC(CCc1ccccc1)NCC(O)c1ccc(O)c(C(N)=O)c1 (stereo not drawn) [LABETALOL]
Result string: 1%

Query string: Specify reported Eos for the compound shown: CC(=O)N1CCN(c2ccc(OCC3COC(Cn4ccnc4)(c4ccc(Cl)cc4Cl)O3)cc2)CC1 (stereo not drawn) [KETOCONAZOLE]
Result string: 0.8%

---

- Species on record: Rattus norvegicus
- assayNotes: Open TG-GATES - Regimen: Daily Repeat
- Format: toxicity, organism-based, Sprague-Dawley
- Set-up: regimen Daily Repeat, gender Male, age 6 weeks
- conditionInfo: in vivo, po, 0 mg/kg, […], tissue Plasma, route gavage, dose level Control, time 7 day
CRE by entry:
Number in mg/dL, nothing else.

Example cases with answers are listed next.
compound: CC(=O)Nc1ccc2c(c1)Cc1ccccc1-2
CRE [mg/dL]: 0.4

compound: CC(CCc1ccccc1)NCC(O)c1ccc(O)c(C(N)=O)c1 (stereo not drawn)
CRE [mg/dL]: 0.2

compound: CC(C)Cc1ccc(C(C)C(=O)O)cc1 (stereo not drawn)
CRE [mg/dL]: 0.2

Query string: Specify reported CRE for the compound shown: CC(N)=O [ACETAMIDE]
Result string: 0.2

Query string: Specify reported CRE for the compound shown: CC[C@@H](CO)NCCN[C@@H](CC)CO
Result string: 0.2

Query string: Specify reported CRE for the compound shown: CC(=O)N1CCN(c2ccc(OCC3COC(Cn4ccnc4)(c4ccc(Cl)cc4Cl)O3)cc2)CC1 (stereo not drawn)
Result string: 0.2

Query string: Specify reported CRE for the compound shown: CCN(CC)N=O
Result string: 0.4

Query string: Specify reported CRE for the compound shown: O=C(O)COc1nn(Cc2ccccc2)c2ccccc12
Result string: 0.5
